Tested on: Fibroblast
Measurement Description: Multiplex assay against human fibroblast
Assay type: toxicity, cell-based
Stated Conditions: 24 h, 10 µM, compound concentration 10 uM, replicate 2
Please use TRUE for Population Membrane Permeable-Phenotype (%) under 6% and FALSE for everything else, ties included.

Check out these entries, answers already filled in.
O=C(CCCc1ccccc1)Nc1nc2ccccc2c(=O)s1; FALSE
CC(/C=C1\SC(=S)N(CCCC(=O)Nc2ccc(C(=O)O)c(O)c2)C1=O)=C\c1ccccc1; FALSE
CC(=O)Nc1cccc2c1c(Sc1ccc(Cl)cc1)c(C)n2CC(=O)O; FALSE
CC(C)(C)c1cc(NC(=O)Nc2ccc(-c3cn4c(n3)sc3cc(OCCN5CCOCC5)ccc34)cc2)no1; TRUE
COc1ccccc1N1CCN(C[C@@H](C(=O)NC(C)(C)C)c2ccccc2)CC1.Cl.Cl; FALSE

Does the reported Population Membrane Permeable-Phenotype (%) of `CN(C)C(=O)Cn1cc(-c2ccc(-c3cncc4ccccc34)cc2)cn1` stay below 6%?
FALSE

Next: Cl.NCCc1ccc(O)c(O)c1 [DOPAMINE HYDROCHLORIDE]
TRUE
